Molecular target: neuraminidase of A/Texas/12/2007, A (H3N2) Seasonal, E119V (Influenza A virus, UniProt D1FVK3, I119V)
Assay: biochemical
Conditions: read-out: Mean IC50 ± SD
measurementKind: pIC50
Quick note: pIC50 values are minus log10 of concentrations in mol/L.

Query: pIC50; subject: "CCC(CC)[C@H](NC(C)=O)[C@@H]1[C@H](O)[C@@H](C(=O)O)C[C@H]1N=C(N)N"
Result: 9.85

###

Target: neuraminidase of seasonal influenza A(H1N1) H275Y variant virus isolates (Influenza A virus, UniProt A8C8J7, H275Y)
Type: biochemical
Conditions: read-out: IC50 Mean (±SD)
measurementKind: pIC50
Quick note: pIC50 values are minus log10 of concentrations in mol/L.

Query: pIC50; subject: "CCC(CC)[C@H](NC(C)=O)[C@@H]1[C@H](O)[C@@H](C(=O)O)C[C@H]1N=C(N)N"
Result: 7.51

###

Biological target: neuraminidase of A/Texas/48/2009, H1N1 Pandemic, H275Y (Influenza A virus, UniProt C6KP13, H275Y)
Details: read-out: Mean IC50 ± SD
measurementKind: pIC50
Quick note: pIC50 values are minus log10 of concentrations in mol/L.

Query: pIC50; subject: "CCC(CC)[C@H](NC(C)=O)[C@@H]1[C@H](O)[C@@H](C(=O)O)C[C@H]1N=C(N)N"
Result: 8.00

###

Molecular target: neuraminidase of A/Thailand/1035/2008 (H1N1), H275Y and D151D/G (Influenza A virus)
Type: biochemical
measurementKind: pIC50
Quick note: pIC50 values are minus log10 of concentrations in mol/L.

Query: pIC50; subject: CC(=O)N[C@H]1[C@H]([C@H](O)[C@H](O)CO)OC(C(=O)O)=C[C@@H]1N=C(N)N [Zanamivir, zanamivir]
Result: 7.69

###

Biological target: neuraminidase of 2009 pandemic H1N1 H275Y variant virus isolates (Influenza A virus, UniProt C3W5S3, H275Y)
Type: biochemical, 2009 pandemic H1N1 influenza virus
Conditions: read-out: IC50 Median
measurementKind: IC50 (nM)
Please respond with the number in nM and leave the unit unwritten.

Query: IC50; subject: CCC(CC)[C@H](NC(C)=O)[C@@H]1[C@H](O)[C@@H](C(=O)O)C[C@H]1N=C(N)N [Peramivir, peramivir]
Result: 10.3

###

Target: neuraminidase of 2009 pandemic H1N1 H275Y variant virus isolates (Influenza A virus, UniProt C3W5S3, H275Y)
Type: biochemical, 2009 pandemic H1N1 influenza virus
Conditions: read-out: IC50 Range
pIC50: −log10 of the molar value.
measurementKind: pIC50

Query: pIC50; subject: "CCC(CC)[C@H](NC(C)=O)[C@@H]1[C@H](O)[C@@H](C(=O)O)C[C@H]1N=C(N)N"
Result: 7.89 to 8.09

###

Molecular target: neuraminidase of A/Thailand/1035/2008 (H1N1), H275Y and D151D/G (Influenza A virus)
Format: biochemical
Details: read-out: IC50
measurementKind: pIC50
Quick note: pIC50 values are minus log10 of concentrations in mol/L.

Query: pIC50; subject: "CCC(CC)[C@H](NC(C)=O)[C@@H]1[C@H](O)[C@@H](C(=O)O)C[C@H]1N=C(N)N"
Result: 6.53

###

Target: neuraminidase of A/Florida/21/2008, A (H1N1) Seasonal, H275Y (Influenza A virus, UniProt G3LYQ1, H275Y)
Conditions: read-out: Mean IC50 ± SD
measurementKind: IC50

Query: IC50; subject: CCC(CC)[C@H](NC(C)=O)[C@@H]1[C@H](O)[C@@H](C(=O)O)C[C@H]1N=C(N)N [Peramivir, peramivir]
Result: 11.3 nM

###

Molecular target: neuraminidase of seasonal influenza A(H1N1) H275Y variant virus isolates (Influenza A virus, UniProt A8C8J7, H275Y)
Format: biochemical
Details: read-out: IC50 Median
measurementKind: IC50
Please answer using the number first and the unit second.

Query: IC50; subject: CCC(CC)[C@H](NC(C)=O)[C@@H]1[C@H](O)[C@@H](C(=O)O)C[C@H]1N=C(N)N [Peramivir, peramivir]
Result: 0.0129 µM

###

Molecular target: neuraminidase of A/Texas/12/2007, A (H3N2) Seasonal, E119V (Influenza A virus, UniProt D1FVK3, I119V)
Test: biochemical
measurementKind: IC50 (nM)
Please respond with the number in nM and leave the unit unwritten.

Query: IC50; subject: "CC(=O)N[C@H]1[C@H]([C@H](O)[C@H](O)CO)OC(C(=O)O)=C[C@@H]1N=C(N)N"
Result: 0.51

###

Target: neuraminidase of A/Ontario/RV0442/2009, A(H3N2), D151V and V50M (Influenza A virus, UniProt X2GPU4, D151V/V50M)
measurementKind: IC50
Please answer using the number first and the unit second.

Query: IC50; subject: CCC(CC)[C@H](NC(C)=O)[C@@H]1[C@H](O)[C@@H](C(=O)O)C[C@H]1N=C(N)N [Peramivir, peramivir]
Result: 7.48 nM
